Experiment: Inhibition of alpha-glucosidase (unknown origin) using PNPG as substrate at 0.02 uM incubated for 15 min prior to substrate addition measured after 15 min by spectrophotometric analysis
Conditions: Homo sapiens
VALUE_KIND: inhibition (%)
Report the figure in % without appending any unit label.

MOLECULE | inhibition [%]
O=c1c(O[C@@H]2O[C@H](CO)[C@H](O)[C@H](O)[C@H]2O)c(-c2ccc(O)c(O)c2)oc2cc(O)cc(O)c12 [HYPEROSIDE] | 14.2
O=c1c(O[C@@H]2O[C@H](CO)[C@@H](O)[C@H](O)[C@H]2O)c(-c2ccc(O)c(O)c2)oc2cc(O)cc(O)c12 | 14.4
C[C@H]1[C@H](C)CC[C@]2(C(=O)O)CC[C@]3(C)C(=CC[C@@H]4[C@@]5(C)CC[C@H](O)C(C)(C)[C@@H]5CC[C@]43C)[C@H]12 | 99.7

Attention now turns to another entry.
// query So what's the measured inhibition for this one? O=c1c(O[C@@H]2O[C@H](CO)[C@@H](O)[C@H](O)[C@H]2O)c(-c2ccc(O)cc2)oc2cc(O)cc(O)c12
// result 18

* * *

Listed compounds paired with reported IC50
System: Radical scavenging activity
Assay: Antioxidant activity assessed as inhibition of DPPH radical production after 30 min by microplate assay
Format: functional
# value in µg/mL; strip the unit string

Before answering, review these 4 worked examples.
COMPOUND | IC50, µg/mL
Cc1cc(C(C)(C)C)c(O)c(C(C)(C)C)c1 [BUTYLATED HYDROXYTOLUENE] | 40.8
CCCOC(=O)c1cc(O)c(O)c(O)c1 [PROPYL GALLATE] | 3.96
O=c1c(O)c(-c2ccc(O)cc2)oc2cc(O)cc(O)c12 | 14.78
O=c1c(O[C@@H]2O[C@H](CO)[C@H](O)[C@H](O)[C@H]2O)c(-c2ccc(O)c(O)c2)oc2cc(O)cc(O)c12 [HYPEROSIDE] | 24.02

Now turn to the next compound.
// query Fill in: IC50 of O=c1c(O[C@@H]2O[C@H](CO)[C@@H](O)[C@H](O)[C@H]2O)c(-c2ccc(O)c(O)c2)oc2cc(O)cc(O)c12 is ___
// result 24.02
